result type: melting point

Could you please provide reported melting point for Cl.O=S(=O)(c1cccc(C(F)(F)F)c1)c1ccc2oc3c(c2c1)C1CCC(C3)N1 (stereo not drawn) ? Thanks!
296 to 298 °C

Could you please provide reported melting point for Cl.O=S(=O)(c1cccc(Cl)c1)c1ccc2oc3c(c2c1)C1CCC(C3)N1 (stereo not drawn) ? Thanks!
285 to 288 °C

Could you please provide reported melting point for Cl.O=S(=O)(c1cccc(F)c1)c1ccc2oc3c(c2c1)C1CCC(C3)N1 (stereo not drawn) ? Thanks!
200 to 210 °C

Could you please provide reported melting point for Cl.O=S(=O)(c1ccc2oc3c(c2c1)CNCC3)n1ccc2ccc(F)cc21 ? Thanks!
199 to 203 °C

Could you please provide reported melting point for Cl.N#Cc1cccc(S(=O)(=O)c2cc(Cl)c3oc4c(c3c2)CNCC4)c1 ? Thanks!
272 to 274 °C

Could you please provide reported melting point for Cl.Nc1ccc(S(=O)(=O)c2ccc3oc4c(c3c2)CNCC4)cc1 ? Thanks!
305 to 314 °C (dec.)

* * *

result type: melting point

Could you please provide reported melting point for Cl.O=S(=O)(c1ccc2oc3c(c2c1)CNCC3)n1ccc2ccccc21 ? Thanks!
283 to 286 °C

Could you please provide reported melting point for Cl.O=S(=O)(c1ccccc1)c1cc(CCO)c2oc3c(c2c1)CNCC3 ? Thanks!
239 to 240 °C

Could you please provide reported melting point for Cl.O=S(=O)(c1ccccc1)c1cc(Cl)c2oc3c(c2c1)CNCC3 ? Thanks!
290 to 294 °C

Could you please provide reported melting point for Cl.O=S(=O)(c1ccc2oc3c(c2c1)CNCC3)c1cccc2ccccc12 ? Thanks!
200 to 202 °C

Could you please provide reported melting point for O=S(=O)(c1ccccc1)c1cc(Cl)c2oc3c(c2c1)CC(O)CC3 (single isomer, unassigned; (+)) [Example 99] ? Thanks!
238 to 242 °C

* * *

- test system: human 5-HT6 receptor (Homo sapiens (Human), UniProt P50406)
- Sequence (P50406 whole entry): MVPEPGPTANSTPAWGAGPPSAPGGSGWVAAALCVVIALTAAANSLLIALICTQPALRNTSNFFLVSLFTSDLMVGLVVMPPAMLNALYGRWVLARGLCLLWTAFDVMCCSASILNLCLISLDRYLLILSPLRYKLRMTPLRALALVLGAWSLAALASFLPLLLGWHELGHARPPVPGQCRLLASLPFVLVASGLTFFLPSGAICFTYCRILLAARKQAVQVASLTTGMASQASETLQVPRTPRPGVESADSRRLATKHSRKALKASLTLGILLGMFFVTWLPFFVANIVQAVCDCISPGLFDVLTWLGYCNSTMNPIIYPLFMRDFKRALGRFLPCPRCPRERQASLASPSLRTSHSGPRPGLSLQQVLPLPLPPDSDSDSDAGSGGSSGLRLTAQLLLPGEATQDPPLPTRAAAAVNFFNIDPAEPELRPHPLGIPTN
- run description: 5-HT6 radioligand binding assay (SPA format, [N-methyl-3H]-LSD)
- stated conditions: human 5-HT6 receptor membranes, 10 nM [N-methyl-3H]-LSD; Ki by Cheng-Prusoff; read-out: human 5HT6 Ki
result type: pKi
# reply with the number alone; pKi is -log10 of concentration in mol/L

Could you please provide reported pKi for O=S(=O)(c1ccc2c(c1)COC2)c1cc(Cl)c2oc3c(c2c1)CNCC3 [Example 156] ? Thanks!
8.12

Could you please provide reported pKi for C[C@H](O)c1ccc(S(=O)(=O)c2cc(Cl)c3oc4c(c3c2)CNCC4)cc1 [Example 140] ? Thanks!
7.80

Could you please provide reported pKi for CC(=O)N1CCc2oc3c(Cl)cc(S(=O)(=O)c4ccccc4)cc3c2C1 [Example 239] ? Thanks!
8.02
